// reported IC50 per item
assay_target: UniProt:P05164
assay_comment: MPO peroxidation assay (Amplex Red assay)
Type: biochemical
conditions_used: potency range class

Worked examples, 5 compounds total:
compound="Nc1cc(Cc2cnn(C[C@@H]3C[C@H](Oc4ccc(F)cc4)CN3)c2)c2nn[nH]c2n1 [Example 280]" value_type=IC50 result="1 to 100 nM"
compound="Nc1cc(Cc2cnn(Cc3cc(Cl)cc([C@@H]4CCNC4)c3)c2)c2nn[nH]c2n1 [Example 196]" value_type=IC50 result="1 to 100 nM"
compound="CC1NCCc2cc(Cn3cc(Cc4cc(N)nc5[nH]nnc45)cn3)ccc21 (stereo not drawn) [Example 181]" value_type=IC50 result="1 to 100 nM"
compound="Nc1cc(Cc2cnn(Cc3cc([C@@H]4CCNC4)ccc3OC(F)F)c2)c2nn[nH]c2n1 [Example 200]" value_type=IC50 result="1 to 100 nM"
compound="Nc1cc(Cc2cnn(Cc3cncc(-c4ccccc4)c3)c2)c2nn[nH]c2n1 [Example 125]" value_type=IC50 result="1 to 100 nM"

(Q) Value wanted: IC50 (UniProt:P05164) of entry Nc1cc(Cc2cnn(-c3cccc4ccccc34)c2)c2nn[nH]c2n1 [Example 9]
(A) 1 to 100 nM

(Q) What value of IC50 on UniProt:P05164 does CN1CCN(CC(=O)NCc2ccc(Cn3cc(Cc4cc(N)nc5[nH]nnc45)cn3)cc2)CC1 [Example 252] have?
(A) 101 to 999 nM

(Q) // fetch UniProt:P05164 IC50 for Nc1cc(Cc2cnn(-c3cccc(C(F)(F)F)c3)c2)c2nn[nH]c2n1 [Example 14]
(A) 1 to 100 nM

(Q) Find the measured IC50: item Nc1cc(Cc2cnn(Cc3ccccc3Oc3ccccc3)c2)c2nn[nH]c2n1 [Example 264] , target or system UniProt:P05164.
(A) 1 to 100 nM

(Q) Identify the measured IC50 of Nc1cc(Cc2cnn(Cc3cccc(-c4cccnc4)c3)c2)c2nn[nH]c2n1 [Example 124] for UniProt:P05164.
(A) 1 to 100 nM

(Q) So what IC50 did Nc1cc(Cc2cnn(CC3Cc4ccccc4C3)c2)c2nn[nH]c2n1 [Example 118] get with UniProt:P05164?
(A) 1 to 100 nM

(Q) Missing value: IC50, UniProt:P05164, entry Nc1cc(Cc2cnn(-c3cccnc3)c2)c2nn[nH]c2n1 [Example 30] . Fill in?
(A) 1 to 100 nM

(Q) Lab note: need IC50 for Nc1cc(Cc2cnn(Cc3ccc(CO)cc3)c2)c2nn[nH]c2n1 [Example 64] on UniProt:P05164, anyone have it?
(A) 1 to 100 nM

(Q) API: value(readout= IC50, system= UniProt:P05164, query= Nc1cc(Cc2cnn(Cc3ccc(N4CCOCC4)cc3)c2)c2nn[nH]c2n1 [Example 111] )
(A) 1000 to 10000 nM

(Q) Missing value: IC50, UniProt:P05164, entry Cn1ccc(-c2cccc(Cn3cc(Cc4cc(N)nc5[nH]nnc45)cn3)c2)n1 [Example 100] . Fill in?
(A) 1 to 100 nM

* * *

assay_target: myeloperoxidase (MPO) (Homo sapiens (Human), UniProt P05164)
Sequence (P05164 49-745): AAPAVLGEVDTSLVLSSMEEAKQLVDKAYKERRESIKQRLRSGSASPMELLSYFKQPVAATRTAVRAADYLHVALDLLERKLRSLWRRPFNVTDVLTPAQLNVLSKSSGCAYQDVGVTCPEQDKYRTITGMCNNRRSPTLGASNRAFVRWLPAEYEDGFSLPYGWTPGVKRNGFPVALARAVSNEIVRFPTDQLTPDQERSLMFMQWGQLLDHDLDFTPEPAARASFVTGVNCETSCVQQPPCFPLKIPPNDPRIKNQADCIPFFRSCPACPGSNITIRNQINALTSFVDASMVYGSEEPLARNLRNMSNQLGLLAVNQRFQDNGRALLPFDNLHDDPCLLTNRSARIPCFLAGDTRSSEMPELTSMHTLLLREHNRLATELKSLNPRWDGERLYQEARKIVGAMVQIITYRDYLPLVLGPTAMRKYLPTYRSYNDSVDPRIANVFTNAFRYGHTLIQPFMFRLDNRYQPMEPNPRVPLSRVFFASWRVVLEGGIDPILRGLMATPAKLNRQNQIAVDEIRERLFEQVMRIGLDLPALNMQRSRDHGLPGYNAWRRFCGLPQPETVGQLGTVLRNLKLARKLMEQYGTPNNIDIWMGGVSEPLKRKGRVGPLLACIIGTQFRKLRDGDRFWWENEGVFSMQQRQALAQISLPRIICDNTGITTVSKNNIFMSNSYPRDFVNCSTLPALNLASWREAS
assay_comment: MPO peroxidation assay (Amplex Red assay)
Type: biochemical
conditions_used: potency range class
pIC50: −log10 of the molar value.
Below, each entry is listed alongside its reported pIC50.

Consider the reported pIC50 for these compounds:
compound_structure_string=Nc1cc(Cc2cnn(Cc3cccc(O[C@@H]4CCNC4)c3)c2)c2nn[nH]c2n1 value_type=pIC50 result="7.00 to 9.00"
compound_structure_string=N#Cc1cccc(Cn2cc(Cc3cc(N)nc4[nH]nnc34)cn2)c1 value_type=pIC50 result="7.00 to 9.00"
compound_structure_string=Nc1cc(Cc2cnn(Cc3cccc(OC[C@@H]4CCCN4)c3)c2)c2nn[nH]c2n1 value_type=pIC50 result="7.00 to 9.00"
compound_structure_string=Nc1cc(Cc2cn(Cc3cccc(C4CCNCC4)c3)nc2C(F)F)c2nn[nH]c2n1 value_type=pIC50 result="6.00 to 7.00"
compound_structure_string=Cc1ccc(-n2cc(Cc3cc(N)nc4[nH]nnc34)cn2)cc1 value_type=pIC50 result="6.00 to 7.00"

Here is another compound to look at.
(Q) Which pIC50 is reported for this compound? `Nc1cc(Cc2cnn(Cc3ccc(C(=O)NCCc4cnc[nH]4)cc3)c2)c2nn[nH]c2n1`
(A) 7.00 to 9.00

* * *

Entries annotated with measured pIC50
assay_target: myeloperoxidase (MPO) (Homo sapiens (Human), UniProt P05164)
assay_comment: MPO peroxidation assay (Amplex Red assay)
Format: biochemical
conditions_used: potency range class
pIC50: −log10 of the molar value.

// known answers, use as guide
compound="Nc1cc(Cc2cnn(Cc3cccc(Oc4cccc(C5CCCN5)c4)c3)c2)c2nn[nH]c2n1 (stereo not shown) [Example 238]" value_type=pIC50 result="7.00 to 9.00"
compound="Nc1cc(Cc2cnn(Cc3cccc(N4CCNC5(CCCCC5)C4)c3)c2)c2nn[nH]c2n1 [Example 223]" value_type=pIC50 result="6.00 to 7.00"
compound="Nc1cc(Cc2cnn(Cc3cnn(-c4ccccn4)c3)c2)c2nn[nH]c2n1 [Example 115]" value_type=pIC50 result="7.00 to 9.00"
compound="Nc1cc(Cc2cnn(Cc3ccc4cc(O)ccc4c3)c2)c2nn[nH]c2n1 [Example 68]" value_type=pIC50 result="7.00 to 9.00"
compound="Nc1cc(Cc2cnn(CCCC3CCNCC3)c2)c2nn[nH]c2n1 [Example 273]" value_type=pIC50 result="7.00 to 9.00"
compound="Cc1cccc(-n2cc(Cc3cc(N)nc4[nH]nnc34)cn2)n1 [Example 20]" value_type=pIC50 result="7.00 to 9.00"
compound="CN1CCc2cc(Cn3cc(Cc4cc(N)nc5[nH]nnc45)cn3)ccc2C1 [Example 159]" value_type=pIC50 result="7.00 to 9.00"
compound="N#Cc1cc(Br)cc(Cn2cc(Cc3cc(N)nc4[nH]nnc34)cn2)c1 [Example 275]" value_type=pIC50 result="7.00 to 9.00"

Shift focus to the following entry.
(Q) So what's the measured pIC50 for this one? CN(C)CCCNC(=O)c1ccc(Cn2cc(Cc3cc(N)nc4[nH]nnc34)cn2)cc1 [Example 89]
(A) 7.00 to 9.00

* * *

assay_target: myeloperoxidase (MPO) (Homo sapiens (Human), UniProt P05164)
assay_comment: MPO chlorination assay (APF assay)
Type: biochemical
conditions_used: potency range class
pIC50: −log10 of the molar value.
value_type: pIC50

compound=Cc1c(Cc2cc(N)nc3[nH]nnc23)cnn1-c1ccc(F)cc1 value_type=pIC50 result="6.00 to 7.00"

(Q) Which pIC50 is reported for this compound? `Nc1cc(Cc2cnn(Cc3ccc(C(=O)NCc4ccn[nH]4)cc3)c2)c2nn[nH]c2n1`
(A) 6.00 to 7.00

(Q) What value of measured pIC50 is listed for `CN1CCN(C(=O)c2ccc(Cn3cc(Cc4cc(N)nc5[nH]nnc45)cn3)cc2)CC1` ?
(A) 6.00 to 7.00

(Q) Can you share its pIC50? I mean this compound: `Nc1cc(Cn2nnc(-c3ccccc3)n2)c2nn[nH]c2n1`
(A) 6.00 to 7.00

(Q) Requested read-out: pIC50. Entry: `Nc1cc(Cc2cnn(Cc3cc(-c4ccccc4)on3)c2)c2nn[nH]c2n1`
(A) 6.00 to 7.00

(Q) Would you kindly share the measured pIC50 for `Nc1cc(Cc2cnn(Cc3ccc(N4CCOCC4)cc3)c2)c2nn[nH]c2n1` ?
(A) 6.00 to 7.00

(Q) What value of pIC50 has been reported for the following compound? `Nc1cc(Cn2nnc3ccccc32)c2nn[nH]c2n1`
(A) 7.00 to 9.00

(Q) Any idea what its pIC50 is? The compound is `CN(C)CCCNC(=O)c1ccc(Cn2cc(Cc3cc(N)nc4[nH]nnc34)cn2)cc1`
(A) 6.00 to 7.00

(Q) # query: pIC50 of entry `Nc1cc(Cc2cnn(Cc3nc(-c4ccccc4)no3)c2)c2nn[nH]c2n1`
(A) 6.00 to 7.00

(Q) Any idea what pIC50 was measured for `CC(C)(C)OC(=O)N1CCc2cc(Cn3cc(Cc4cc(N)nc5[nH]nnc45)cn3)ccc2C1` ?
(A) 5.00 to 6.00

(Q) Returns the measured pIC50 for the input compound. Input: `Nc1cc(Cc2cnn(-c3ccccc3)c2)c2nn[nH]c2n1`
(A) 7.00 to 9.00

(Q) # pIC50 lookup, item `Nc1cc(Cc2cnn(Cc3cccc(CN4CCCC4)c3)c2)c2nn[nH]c2n1`
(A) 6.00 to 7.00

(Q) Requested field: pIC50. Item: `Nc1cc(Cc2cnn(CC3CC4(CCNCC4)C3)c2)c2nn[nH]c2n1`
(A) 6.00 to 7.00

(Q) For `Nc1cc(Cn2nnc3cc(Cl)ccc32)c2nn[nH]c2n1` , what is its reported pIC50?
(A) 6.00 to 7.00

(Q) Item Nc1cc(Cc2cnn(Cc3cccc(OC4CCCNC4)c3)c2)c2nn[nH]c2n1 (centres unmarked) has what recorded pIC50?
(A) 7.00 to 9.00

(Q) GET /values?readout=pIC50&item= `Nc1cc(Cc2cnn(Cc3cccc(N4CCNC5(CCC5)C4)c3)c2)c2nn[nH]c2n1`
(A) 7.00 to 9.00

(Q) So what's the measured pIC50 for this one? `Nc1cccc(Cn2cc(Cc3cc(N)nc4[nH]nnc34)cn2)c1`
(A) 6.00 to 7.00
